I'd appreciate it if you could supply IC50 values for the items below.
target: HIV-1 protease (Human immunodeficiency virus type 1 group M subtype B, UniProt P03369); assay: biochemical; settings: HIV-1 Protease IC50 (μM) 1M NaCl
I only need the number, in µM, no unit after it.

Ask: # IC50 lookup, item O=C(CCCN1CCC(O)(c2ccc(Cl)cc2)CC1)c1ccccc1 [UCSF62]
Reply: 100

Ask: Consider next the molecule C=C(CCC[N+]1([O-])CCC(O)(c2ccc(Cl)cc2)CC1)c1ccc(F)cc1 (centres unmarked) [UCSF42] in the same way.
Reply: 30

Ask: Consider next the molecule CC(CCN1CCC(O)(c2ccc(Cl)cc2)CC1)C(=O)c1ccc(F)cc1 (centres unmarked) [UCSF50] in the same way.
Reply: 100

Ask: Consider next the molecule OC1(c2ccc(Cl)cc2)CCN(CCN(Cc2ccccc2)Cc2ccccc2)CC1 [UCSF46] in the same way.
Reply: 30

Ask: Consider next the molecule O=C(C#CCN1CCC(O)(c2ccc(Cl)cc2)CC1)c1ccc(-c2ccccc2)cc1 [UCSF231] in the same way.
Reply: 100

Ask: Consider next the molecule CC[C@@H]1CSC(CCCN2CCC(O)(c3ccc(Cl)cc3)CC2)(c2ccc(F)cc2)O1 (some centres unmarked) [UCSF79] in the same way.
Reply: 30

Ask: Consider next the molecule CC(CCc1ccccc1)N1CCC(O)(c2ccc(Cl)cc2)CC1 (centres unmarked) [UCSF73] in the same way.
Reply: 100

Ask: Consider next the molecule OC1(c2ccc(Cl)cc2)CCN(CCCC2(c3ccccc3)OCCO2)CC1 [UCSF49] in the same way.
Reply: 100

###

biological target: HIV-1 protease (Human immunodeficiency virus type 1 group M subtype B); test: biochemical
I'd appreciate it if you could supply HIV-1 Protease Therapeutic Index (LD50 /IC50) values for the items below.

Ask: # HIV-1 Protease Therapeutic Index (LD50 /IC50) lookup, item OC1(c2ccc(Cl)cc2)CCN(CCCN(CCc2ccccc2)Cc2ccccc2)CC1
Reply: 0.2-0.4

Ask: Consider next the compound Cc1ccc(C(=O)CCC(c2ccccc2)N2CCC(O)(c3ccc(Cl)cc3)CC2)cc1 (centres unmarked) in the same way.
Reply: 5.7(0.7)

Ask: Consider next the compound O=C(CCCN1CCC(O)(c2ccccc2)CC1)c1ccc2ccccc2n1 in the same way.
Reply: 2(1)

Ask: Consider next the compound OC1(c2ccc(Cl)cc2)CCN(CCCC2(c3ccc(F)cc3)SCc3cccc(c3)CS2)CC1 in the same way.
Reply: > 20(10)

Ask: Consider next the compound O=C(CCCN1CCC(CO)(c2ccccc2)CC1)c1ccc(F)cc1 in the same way.
Reply: > 0.2
